test system: wild oat; experiment: Test B pre/postemergence wild oat; type: in vivo, Avena fatua; settings: Preemergence, Rate 500 g/ha; scale of 0 to 10 where 0 is no effect and 10 is complete control
OUTCOME_MEASURE: Wild oats plant response rating
// keep it numeric: no unit symbol after the value

Would you please look over these solved cases?
# COMPOUND, OBSERVED
data = [
    ("CSCCn1c(=O)on(C(=O)N(c2ccc(F)cc2)C(C)C)c1=O", 3),
    ("CC(C)N(C(=O)n1oc(=O)n(C(C)C(=O)c2ccccc2)c1=O)c1ccccc1 (stereo not shown)", 0),
    ("CC(=O)C(C)n1c(=O)on(C(=O)N(c2ccc(F)cc2F)C(C)C)c1=O (stereo not shown)", 5),
    ("CCN(CC)C(=O)n1oc(=O)n(-c2ccccc2C)c1=O", 3),
]

Log: wild oat, compound CC(C)N(C(=O)n1oc(=O)n(CCC(F)=C(F)F)c1=O)c1ccccc1 , Wild oats plant response rating = 10

Log: wild oat, compound CC(C)N(C(=O)n1oc(=O)n(Cc2nnsc2Cl)c1=O)c1ccccc1 , Wild oats plant response rating = 5

Log: wild oat, compound CC(C)N(C(=O)n1oc(=O)n(CCCCF)c1=O)c1ccc(Cl)cc1 , Wild oats plant response rating = 9

Log: wild oat, compound CC(Cl)=CCn1c(=O)on(C(=O)N(c2ccc(F)cc2F)C(C)C)c1=O , Wild oats plant response rating = 6

Log: wild oat, compound CC(C)N(C(=O)n1oc(=O)n(CCC(F)(F)F)c1=O)c1ccc(F)cc1F , Wild oats plant response rating = 8

Log: wild oat, compound CCOc1nc(C(F)(F)F)c(Cn2c(=O)on(C(=O)N(c3ccccc3)C(C)C)c2=O)s1 , Wild oats plant response rating = 0

###

test system: bedstraw; test: Test B pre/postemergence bedstraw; format: in vivo, Galium aparine; settings: Preemergence, Rate 500 g/ha; scale 0 (no effect) to 10 (complete control)
Let's look at some molecules and their measured Bedstraw plant response rating.

Would you please look over these solved cases?
# SMILES_STRUCTURE, Bedstraw plant response rating
data = [
    ("CCCn1c(=O)on(C(=O)N(c2ccccc2)C(C)C)c1=O", 1),
    ("CC(C)N(C(=O)n1oc(=O)n(Cc2ccccc2)c1=O)c1ccc(F)cc1F", 0),
    ("Cc1ccc(N(C(=O)n2oc(=O)n(-c3ccccc3C)c2=O)C(C)C)cc1", 0),
    ("Cc1ccccc1-n1c(=O)on(C(=O)N(c2ccc(F)c(F)c2)C(C)C)c1=O", 0),
]

# evaluate next
// field: Bedstraw plant response rating; key: CC(C)N(C(=O)n1oc(=O)n(-c2ccccc2C(F)(F)F)c1=O)c1ccc(F)cc1 ; value = 7

###

Let's look at some molecules and their measured Rape plant response rating.
Test system: rape
Experiment: Test B pre/postemergence rape
Format: in vivo, Brassica napus
Settings: Preemergence, Rate 125 g/ha; scale 0 to 10, 0 is no effect, 10 is complete control
Experimental: […] At the same time, these crop and weed species were also treated with postemergence applications of test chemicals formulated in the same manner. […] Treated plants and controls were maintained in a greenhouse for twelve to sixteen days, after which all species were compared to controls and visually evaluated. […]
// keep it numeric: no unit symbol after the value

Would you please look over these solved cases?
# MOLECULE, OBSERVED
measured = [
    ("Cc1noc(C)c1Cn1c(=O)on(C(=O)N(c2ccccc2)C(C)C)c1=O [Compound 569]", 0),
    ("CC(C)N(C(=O)n1oc(=O)n(C(C)C(=O)c2ccccc2)c1=O)c1ccccc1 (stereo not shown) [Compound 570]", 0),
    ("CC(Cl)=CCn1c(=O)on(C(=O)N(c2ccc(F)cc2F)C(C)C)c1=O [Compound 514]", 0),
    ("CC(C)C(=O)Cn1c(=O)on(C(=O)N(c2ccccc2)C(C)C)c1=O [Compound 485]", 0),
    ("CC(=O)C(C)n1c(=O)on(C(=O)N(c2ccc(F)cc2F)C(C)C)c1=O (stereo not shown) [Compound 517]", 0),
    ("CC(C)N(C(=O)n1oc(=O)n(CCC2OCCO2)c1=O)c1ccccc1 [Compound 560]", 3),
]

# evaluate next
// field: Rape plant response rating; key: CC(C)N(C(=O)n1oc(=O)n(CCCCF)c1=O)c1ccc(Cl)cc1 [Compound 551] ; value = 3

###

system: blackgrass; experiment: Test B pre/postemergence blackgrass; format: in vivo, Alopecurus myosuroides; conditions: Preemergence, Rate 500 g/ha; scale of 0 to 10 where 0 is no effect and 10 is complete control
Rule: Plant response rating, Blackgrass of 4 or more gives class 1; anything lower gives class 0.

Reference set (5 entries):
# COMPOUND, CLASS
measured = [
    ("CC(C)N(C(=O)n1oc(=O)n(-c2cccnc2)c1=O)c1ccccc1 [Compound 235]", "class 0"),
    ("CC(C)N(C(=O)n1oc(=O)n(CCF)c1=O)c1ccc(Cl)cc1 [Compound 668]", "class 1"),
    ("COP(=O)(CCn1c(=O)on(C(=O)N(c2ccccc2)C(C)C)c1=O)OC [Compound 697]", "class 1"),
    ("COCCn1c(=O)on(C(=O)N(c2ccccc2)C(C)C)c1=O [Compound 631]", "class 1"),
    ("CC(C)N(C(=O)n1oc(=O)n(C2CC2)c1=O)c1ccc(F)cc1 [Compound 242]", "class 1"),
]

Has COC(=O)Cn1c(=O)on(C(=O)N(c2ccc(F)cc2)C(C)C)c1=O [Compound 215] a recorded Plant response rating, Blackgrass greater than or equal to 4?
class 1

Has CCc1ccc(N(C(=O)n2oc(=O)n(-c3ccccc3C)c2=O)C(C)C)cc1 [Compound 230] a recorded Plant response rating, Blackgrass greater than or equal to 4?
class 0

Has COC(=O)CCCn1c(=O)on(C(=O)N(c2ccc(F)cc2)C(C)C)c1=O [Compound 266] a recorded Plant response rating, Blackgrass greater than or equal to 4?
class 1

###

system: morningglory; assay: Test B pre/postemergence morningglory; type: in vivo, Ipomoea hederacea; conditions: Postemergence, Rate 250 g/ha; scale 0 to 10, 0 no effect, 10 complete control
OUTCOME_MEASURE: Morningglory plant response rating
// keep it numeric: no unit symbol after the value

Would you please look over these solved cases?
# SMILES_STRUCTURE, Morningglory plant response rating
records = [
    ("CC(C)N(C(=O)n1oc(=O)n(-c2cnn(C)c2Cl)c1=O)c1ccc(F)cc1", 3),
    ("CCN(CC)C(=O)n1oc(=O)n(-c2cc(Cl)cc(Cl)c2)c1=O", 0),
    ("CC(C)N(C(=O)n1oc(=O)n(-c2c(Cl)cccc2Cl)c1=O)c1ccc(F)cc1", 0),
]

Log: morningglory, compound Cc1cccc(C(C)C)c1-n1c(=O)on(C(=O)N(c2ccc(Cl)cc2)C(C)C)c1=O , Morningglory plant response rating = 0

Log: morningglory, compound CC(C)N(C(=O)n1oc(=O)n(Cc2ccccc2)c1=O)c1ccc(F)cc1 , Morningglory plant response rating = 10

Log: morningglory, compound COc1ccccc1-n1c(=O)on(C(=O)N(c2ccc(F)cc2F)C(C)C)c1=O , Morningglory plant response rating = 3

###

Let's look at some molecules and their measured Barnyardgrass plant response rating.
Tested on: bamyardgrass
Test: Test B flood test barnyardgrass
Type: in vivo, Echinochloa crus-galli
Conditions: Rate 500 g/ha, Pre-emergence section of Table B; 0 to 10 scale (0 no effect, 10 complete control)
Experimental: At the same time, these crop and weed species were also treated with postemergence applications of test chemicals formulated in the same manner. Plants ranged in height from 2 to 18 cm (1- to 4-leaf stage) for postemergence treatments. […] Treated plants and controls were maintained in a greenhouse for twelve to sixteen days, after which all species were compared to controls and visually evaluated. […]
// keep it numeric: no unit symbol after the value

# MOLECULE, Barnyardgrass plant response rating
rows = [
    ("CC(C)N(C(=O)n1oc(=O)n(C(C)C2=NOCC2)c1=O)c1ccc(F)cc1 (racemic)", 0),
]

// field: Barnyardgrass plant response rating; key: CC(C)N(C(=O)n1oc(=O)n(C(C)C(=O)N2CCOCC2)c1=O)c1ccc(F)cc1 (centres unmarked) ; value = 2

// field: Barnyardgrass plant response rating; key: CCC(C)n1c(=O)on(C(=O)N(c2ccccc2)C(C)C)c1=O (centres unmarked) ; value = 0

// field: Barnyardgrass plant response rating; key: COC(C)n1c(=O)on(C(=O)N(c2ccc(Cl)cc2)C(C)C)c1=O (centres unmarked) ; value = 0

// field: Barnyardgrass plant response rating; key: CCCCCCn1c(=O)on(C(=O)N(c2ccc(Cl)cc2)C(C)C)c1=O ; value = 2

###

system: soybean; experiment: Test B pre/postemergence soybean; format: in vivo, Glycine max; settings: Rate 62 g/ha, Postemergence; scale 0 to 10 (0 no effect, 10 complete control)
OUTCOME_MEASURE: Soybean plant response rating

Would you please look over these solved cases?
# COMPOUND, Soybean plant response rating
measured = [
    ("CC(C)C(=O)Cn1c(=O)on(C(=O)N(c2ccccc2)C(C)C)c1=O", 2),
    ("Cc1ccccc1-n1c(=O)on(C(=O)N(c2ccc3c(c2)CCC3)C(C)C)c1=O", 1),
    ("CC(C)N(C(=O)n1oc(=O)n(Cc2nnsc2Cl)c1=O)c1ccccc1", 2),
    ("CCOCn1c(=O)on(C(=O)N(c2ccc(F)cc2)C(C)C)c1=O", 2),
    ("CC(C)N(C(=O)n1oc(=O)n(C(CF)CF)c1=O)c1ccc(Cl)cc1", 1),
    ("C=CC(CC)n1c(=O)on(C(=O)N(c2ccccc2)C(C)C)c1=O (centres unmarked)", 1),
    ("CC(C)N(C(=O)n1oc(=O)n(C(C)C(=O)N(C)C)c1=O)c1ccc(F)cc1F (centres unmarked)", 4),
]

// field: Soybean plant response rating; key: CC(C)N(C(=O)n1oc(=O)n(C[Si](C)(C)C)c1=O)c1ccc(F)cc1 ; value = 2

Attribution: patent US6737383B1
